Test system: KRAS patient-derived spheroids with HUVEC/MSC, viability;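 further: compound exposure lasted seven days before readout; 100% = DMSO vehicle control viability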
Assay: Anticancer human tumor 519858-162-T-J1-PDC patient-derived colon adenocarcinoma cell line growth inhibition [KRAS2]
Conditions: second compound 0.316 µM; first compound 0.316 µM; stronger effect = lower value

{"molecule": "COC(=O)c1ccc2c(C(=Nc3ccc(N(C)C(=O)CN4CCN(C)CC4)cc3)c3ccccc3)c(O)[nH]c2c1 + C=CC(=O)N1CCN(c2nc(OCC3CCCN3C)nc3c2CCN(c2cccc4cccc(C)c24)C3)CC1CC#N", "viability, T/C": "59.7%"}
{"molecule": "Cn1nccc1Nc1nccc(-c2cc3c(s2)C(C)(C)N(CCN2CCOCC2)C3=O)n1 + COc1cc2nc(C)nc(NC(C)c3cc(N)cc(C(F)(F)F)c3)c2cc1OC1CCOC1", "viability, T/C": "65%"}
{"molecule": "O=C(c1cc(Cc2n[nH]c(=O)c3ccccc23)ccc1F)N1CCN(C(=O)C2CC2)CC1 + CNCc1ccccc1-c1csc(C(C)Nc2nc(C)nc3cc(OC)c(OC)cc23)c1", "viability, T/C": "97.8%"}
